ASSAY_TEXT: NCI Yeast Anticancer Drug Screen. Data for the bub3 strain (AID 167)
EXPERIMENTAL_PARAMETERS: S. cerevisiae bub3 mutant strain, at 50.0 µM, hits give high values
This is part of a sample that, as a whole, favours compounds with a hit. Of some 79,000 tested, about 15% had one in any assay.
QUANTITY: growth inhibition (%)
Form entry: value (%) — number only.

Example molecules with recorded growth inhibition:
O=c1[nH]c(N2CCN(c3ccccc3)CC2)nc2cc3ccccc3cc12    -5.15
Ic1ccccc1    -45.8

## Input Would you kindly share the measured growth inhibition for CCC12C[N+]3([O-])CCc4c([nH]c5ccccc45)C(C(=O)OC)(c4cc5c(cc4OC)N(C)C4C(O)(C(=O)OC)C(OC(C)=O)C6(CC)C=CCN7CCC54C76)CC(C3)C1O2 (stereo unspecified) ?
## Output -2.2

## Input Would you mind telling me what growth inhibition value was observed for "COc1cc(CC/C(C)=N/O)ccc1OCc1ccccc1" ?
## Output 9.65

###

ASSAY_TEXT: NCI Yeast Anticancer Drug Screen. Data for the mec2-1 strain (AID 157)
EXPERIMENTAL_PARAMETERS: S. cerevisiae mec2-1 strain, at 50.0 µM, hits give high values
About 79,000 compounds went through this panel and 15% of them were active in at least one assay; those are over-represented in the sample as a whole.
Catalogue of compounds with associated growth inhibition
Field format: number, assumed %, no unit text.

CCOC(=O)C1(Br)C(c2ccccc2)NC(=O)N(C2OC(COC(=O)c3ccccc3)C(OC(=O)c3ccccc3)C2OC(=O)c2ccccc2)C1(C)Br (stereo unspecified)    -28.4

## Input growth inhibition for O=C(O)CNC(=O)C(Cc1ccccc1)NC(=O)CNC(=O)C(CSC(c1ccccc1)c1ccccc1)NC(=O)C(CSC(c1ccccc1)(c1ccccc1)c1ccccc1)N1C(=O)c2ccccc2C1=O (stereo unspecified) ?
## Output 14.1

## Input Any idea what its growth inhibition is? The compound is COc1cc(C2C3=C(COC3=O)Oc3cc4c(cc32)OCO4)cc(OC)c1OC(C)=O (stereo unspecified)
## Output -22.9

## Input Which growth inhibition value is on record for "Cc1c(C)c2c(c(C)c1Cl)CC2(Cl)Cl" ?
## Output 4

## Input Suppose we examine the compound "CCCCCCCCCCCCOP(=O)(CC(=O)NCc1cc(C(C)(C)C)c(O)c(C(C)(C)C)c1)OCCCCCCCCCCCC" ; what growth inhibition value has been reported?
## Output 3.3

## Input Given COCCNC(c1ccccc1)C(O)c1ccccc1 (stereo unspecified) , state its recorded growth inhibition.
## Output -15.6

## Input Recorded growth inhibition of "CCOC(=O)c1cc2nc3ccccn3c(=O)c2cc1N" , please.
## Output -17.5

## Input Give the measured growth inhibition of COC1=CC(O)(CC(N)=O)c2ccccc2C1=O (stereo unspecified) .
## Output -8.65

## Input Give the measured growth inhibition of "O=S(=O)(Cc1c(Cl)c(Cl)c(Cl)c(Cl)c1Cl)c1ccc(Cl)cc1" .
## Output -0.6

###

ASSAY_TEXT: NCI Yeast Anticancer Drug Screen. Data for the rad50 strain (AID 155);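 also: 0% = growth of vehicle-only cultures of the same strain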
EXPERIMENTAL_PARAMETERS: S. cerevisiae rad50 strain growth inhibition; at 50.0 µM; hits give high values
This is part of a sample that, as a whole, favours compounds with a hit. Of some 79,000 tested, about 15% had one in any assay.
QUANTITY: growth inhibition (%)
Express the result in % but write the number alone.

COc1ccc(-c2nnc(Cl)o2)cc1    -1.95

## Input Given the entry "Cn1cnc([N+](=O)[O-])c1Sc1n[nH]c(-c2ccc(Cl)cc2)n1" , report its measured growth inhibition.
## Output -11.6

## Input Record request: growth inhibition value, item "O=[N+]([O-])c1ccc(Sc2ccc([N+](=O)[O-])cc2)cc1"
## Output 2.35

## Input I am curious: what growth inhibition value has been reported for COc1cc([C@@H]2OCC3C(c4ccc5c(c4)OCO5)OCC32)cc(OC)c1OC (stereo not given in full) ?
## Output 9.9

###

ASSAY_TEXT: NCI Yeast Anticancer Drug Screen. Data for the mec2-1 strain (AID 157)
EXPERIMENTAL_PARAMETERS: S. cerevisiae mec2-1 strain, at 50.0 µM, hits give high values
This is part of a sample that, as a whole, favours compounds with a hit. Of some 79,000 tested, about 15% had one in any assay. Activity calls are given as the source filed them. No stated cut-off is given here; in the data, active means growth inhibition above about 70%; inactive means the rest.
QUANTITY: growth inhibition

Completed entries (count: 4):
COc1cc(C(=O)OCCOC(=O)c2ccc(O)c(OC)c2)ccc1O    13.8% (inactive)
COC(=O)CNC(=O)C1CSC(C)(C)N1 (stereo unspecified)    -6.65% (inactive)
[N-]=[N+]=Nc1nn2cnnc2c2[nH]c3ccccc3c12    0.65% (inactive)
CC1=NN(c2ccccc2)C(N)C1 (stereo unspecified)    17.7% (inactive)

## Input Data request, read-out growth inhibition, for "O=[N+]([O-])c1ccc2c(Cl)c3ccccc3nc2c1"
## Output 24.1% (inactive)

## Input Looking for the measured growth inhibition of CCCCCC(C)(O)CC(C)(C)C (stereo unspecified) , can you help?
## Output 5.75% (inactive)

## Input // returns reported growth inhibition for input "O=C(Nc1nccs1)Nc1cc(F)ccc1F"
## Output 42.5% (inactive)

###

ASSAY_TEXT: NCI Yeast Anticancer Drug Screen. Data for the bub3 strain (AID 167)
EXPERIMENTAL_PARAMETERS: S. cerevisiae bub3 mutant strain, at 50.0 µM, hits give high values
Experimental: Growth inhibition of yeast strains with defined genetic alterations is measured as a screen for potential anti-cancer activity. Selected strains with alterations in DNA damage repair or cell cycle control were exposed to compounds and growth inhibition was measured relative to vehicle treated controls. The strain used in this assay is bub3
Compounds without any hit were thinned out: in the full panel of roughly 79,000, 15% have a hit.
growth inhibition listing for selected compounds.
Answer format: numeric, % implied, no suffix.

## Input Given the entry COC(=O)/C=C(\C)CC/C=C(\C)CCC1OC1(C)C (configuration not stated) , report its measured growth inhibition.
## Output 77.5

## Input Given "O=COC1CCCCCC1" , state its recorded growth inhibition.
## Output -5.9

## Input Could you share which growth inhibition value was measured for "CCCNC(=O)Nc1ccc(OCC)cc1" ?
## Output 2.2

###

ASSAY_TEXT: NCI Yeast Anticancer Drug Screen. Data for the sgs1 mgt1 strain (AID 161);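 also: 0% = growth of cultures given vehicle only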
EXPERIMENTAL_PARAMETERS: S. cerevisiae sgs1 mgt1 strain, at 50.0 µM, hits give high values
The panel holds about 79,000 compounds, 15% with a hit somewhere; the sample as a whole holds those more often.
QUANTITY: growth inhibition (%)
Could you give me the number in %? Just the number is fine.

Worked set:
CCCc1n[nH]c(=S)n1N1C(=S)NC(C)(C)C=C1C    18.1
O=c1/c(=C/c2cccc([N+](=O)[O-])c2)sc2nc3ccccc3n12    -18.1
O=C(CC1C(=O)Nc2ccccc2S1=O)Nc1ccc(Cl)cc1 (stereo not given)    59.8
CC(=O)Nc1cc(Cl)ccc1C    26.3
CN(C)N=Nc1ccc(C(=O)N/N=C/c2ccc([N+](=O)[O-])cc2)cc1    4.75
COc1ccc2c(-c3cc4ccccc4o3)cc(=O)oc2c1    -21.3
Nc1cccc(=O)[nH]1    -0.05
CSCCCCCCSC    -2.75
CCC1(CC)C(=O)C(CC)(CC)C1=O    38
[N-]=[N+]=NC1(Cc2ccccc2)C(=O)Nc2ccccc2C1=O (stereo not given)    -19.4

## Input Fill blank: measured growth inhibition of the compound "Cc1ccc(NC(=O)c2cc3cc(N=Nc4ccc(Br)cc4)ccc3oc2=O)cc1" is ____.
## Output 12.4

## Input Request the reported growth inhibition associated with "Cc1cc2[nH]c3c(C#N)c(O)c(C(C)C)c(=O)n3c2cc1C"
## Output 11.6

## Input Name the recorded growth inhibition for "ClCc1nn(-c2ccccc2)c(CCl)c1CCl" .
## Output 18.4

## Input Requested field: growth inhibition. Item: "COc1ccc2c(C)cc(N/N=C(\C)C=O)nc2c1"
## Output 18.8

###

The compounds listed here are annotated with their growth inhibition.
ASSAY_TEXT: NCI Yeast Anticancer Drug Screen. Data for the mlh1 rad18 strain (AID 175)
EXPERIMENTAL_PARAMETERS: S. cerevisiae mlh1 rad18 strain growth inhibition; at 50.0 µM; hits give high values
About 79,000 compounds went through this panel and 15% of them were active in at least one assay; those are over-represented in the sample as a whole.
Express your answer in %, writing the number without its unit.

O=[N+]([O-])c1cccc(S(=O)(=O)NC2c3ccccc3Oc3ccccc32)c1    24.8
COc1[nH]c2ccccc2c1C=O    24.1
C/C(=C\C(=O)c1cccc([N+](=O)[O-])c1)c1cccc([N+](=O)[O-])c1    29.6

## Input Request the reported growth inhibition associated with CCNC(=O)C1CCCN1C(=O)C(CCCN=C(N)N)NC(=O)C(CC(C)C)NC(=O)C(Cc1c[nH]c2ccccc12)NC(=O)C(Cc1ccc(O)cc1)NC(=O)C(CO)NC(=O)C(Cc1c[nH]c2ccccc12)NC(=O)C(Cc1cnc[nH]1)NC(=O)C1CCC(=O)N1 (stereo not given)
## Output 10.2
